target: CaBbc1; experiment: SPOT peptide array binding signal intensity (averaged, normalized) (arbitrary units (background-subtracted, floor 0; scale differs between SH3 domains)); higher = stronger binding of the SH3 domain to the peptide
Measured quantity: SPOT peptide array binding signal intensity

{"columns": ["Binder", "Result"],
 "data": [
  ["NSMRPPLLIPAATTK", 47.2],
  ["MFLISPPASPPPEFD", 6],
  ["LASNSPPVYPKRIRH", 400],
  ["RKNRAPPQRPRFNRD", 1240],
  ["VKPRQLFPIPLNKVD", 9],
  ["NRLRKRLNLPSEISI", 9.75],
  ["KRRTSLFPWLHKPGI", 53.2]
]}

Origin of values: the supplement of paper PMC4466140
